target: HLA-A*02:01; experiment: IEDB peptide-MHC binding, purified MHC/direct/fluorescence; filed as Kd, often an IC50 or EC50 that approximates it; bounds were set here for any values at or beyond the usual limits of such assays; conditions: source organism: Rift Valley fever virus
MEASURE: Kd (µM)
The response must be a number in µM with no trailing unit.

Query for HLA-A*02:01: what Kd does the record show for `YLKEACNHA` ?
0.243

----------
molecular target: HLA-B*15:09; test: IEDB peptide-MHC binding, purified MHC/direct/fluorescence; filed as Kd, often an IC50 or EC50 that approximates it; bounds were set here for any values at or beyond the usual limits of such assays; conditions: source organism: Bacillus cereus H3081.97
MEASURE: pKd
Please keep in mind that pKd is minus log10 of the molar concentration; only the number is needed.

Which pKd is listed for `TVIRFWHAM` ?
5.22

----------
target: HLA-B*44:02; assay: IEDB peptide-MHC binding, purified MHC/competitive/radioactivity; filed as Kd, often an IC50 or EC50 that approximates it; bounds were set here for any values at or beyond the usual limits of such assays; conditions: source organism: Dengue virus 4 Philippines/H241/1956
Recorded Kd values for a group of sequences are listed next.
For clarity, give the value followed by its unit.

{"columns": ["SEQUENCE_RECORD", "SYSTEM_UNDER_TEST", "RECORDED_VALUE"],
 "data": [
  ["MEFIDGISL", "HLA-B*44:02", "182 nM"]
]}

Data request, read-out Kd, for `SLEKAANVQW`
10700 nM

Value lookup for Kd; key = `AEYTNSVTNI`
280 nM

----------
target: HLA-A*02:01; assay: IEDB peptide-MHC binding, purified MHC/competitive/fluorescence; filed as Kd, often an IC50 or EC50 that approximates it; bounds were set here for any values at or beyond the usual limits of such assays; details: source organism: Pseudomonas aeruginosa PACS2
MEASURE: Kd (nM)
Kindly provide the numeric value in nM only, without the unit symbol.

Which Kd value belongs to `KLIDVSKCI` ?
8.6

----------
biological target: HLA-A*02:19; assay: IEDB peptide-MHC binding, purified MHC/competitive/fluorescence; filed as Kd, often an IC50 or EC50 that approximates it; bounds were set here for any values at or beyond the usual limits of such assays; details: source organism: Vibrio antiquarius
MEASURE: Kd

// lookup Kd | system=HLA-A*02:19 | key= `SLTIPSFYT`
≥ 20 µM

----------
Parameter: Kd. Scope: all listed entries.
target: HLA-A*02:01; test: IEDB peptide-MHC binding, purified MHC/direct/fluorescence; filed as Kd, often an IC50 or EC50 that approximates it; bounds were set here for any values at or beyond the usual limits of such assays; conditions: source organism: Giardia lamblia ATCC 50803

So what does the record say about Kd for `DYIYLPLLK` ?
≥ 20 µM

Suppose we examine the sequence `MHDPHSIPL` ; what Kd value has been reported?
≥ 20 µM

Using the record for `SLNPYYQSY` , report its Kd.
≥ 20 µM

----------
molecular target: HLA-A*68:01; experiment: IEDB peptide-MHC binding, purified MHC/competitive/radioactivity; filed as Kd, often an IC50 or EC50 that approximates it; bounds were set here for any values at or beyond the usual limits of such assays; conditions: source organism: Triticum aestivum
pKd: −log10 of the molar value.
MEASURE: pKd

Query (sequence): `QQQQQQQQK` ; field requested: pKd
≤ 4.50

----------
target: HLA-A*31:01; test: IEDB peptide-MHC binding, purified MHC/direct/fluorescence; filed as Kd, often an IC50 or EC50 that approximates it; bounds were set here for any values at or beyond the usual limits of such assays; conditions: source organism: Corynebacterium glutamicum
MEASURE: Kd

Please report the recorded Kd for `FLPGQYMNI` .
≥ 20 µM

----------
target: HLA-B*53:01; test: IEDB peptide-MHC binding, purified MHC/competitive/radioactivity; filed as Kd, often an IC50 or EC50 that approximates it; bounds were set here for any values at or beyond the usual limits of such assays; conditions: source organism: Mammarenavirus guanaritoense
MEASURE: pKd
Bear in mind: pKd is minus log10 of a mol/L concentration; give just that figure.

pKd lookup needed for `NPLVITTSV` , thanks.
4.85

----------
molecular target: HLA-A*03:01; test: IEDB peptide-MHC binding, purified MHC/direct/fluorescence; filed as Kd, often an IC50 or EC50 that approximates it; bounds were set here for any values at or beyond the usual limits of such assays; settings: source organism: Haemophilus influenzae
MEASURE: Kd

# get_value(readout='Kd', item= `VYFSPWFFL` )
≥ 20 µM

----------
target: HLA-A*03:01; test: IEDB peptide-MHC binding, purified MHC/direct/fluorescence; filed as Kd, often an IC50 or EC50 that approximates it; bounds were set here for any values at or beyond the usual limits of such assays; conditions: source organism: Camelpox virus M-96
MEASURE: Kd

Would you kindly share the measured Kd for `NSNINVINY` ?
≥ 20 µM

----------
biological target: HLA-B*40:01; assay: IEDB peptide-MHC binding, purified MHC/direct/fluorescence; filed as Kd, often an IC50 or EC50 that approximates it; bounds were set here for any values at or beyond the usual limits of such assays; details: source organism: Influenza A virus (A/Duck/Shantou/2144/00(H9N2))
MEASURE: Kd (nM)
Use nM as the unit, but write only the number.

Would you mind telling me what Kd value was observed for `GEETIEERF` ?
134

----------
Each entry below carries its reported IC50.
target: HLA-A*02:01; assay: IEDB peptide-MHC binding, purified MHC/competitive/fluorescence; bounds were set here for any values at or beyond the usual limits of such assays; conditions: source organism: Sudan ebolavirus
Answer with a number only, understood to be in µM.

I'd like to know its IC50. The sequence in question is `VVTNSTLEV`
7.96

Requested field: IC50. Item: `LITSTVTGI`
1.64

Requested field: IC50. Item: `ELSFEALSL`
23.9

Need IC50, item `QSPPIREAV`
38.3

----------
target: HLA-A*26:01; experiment: IEDB peptide-MHC binding, purified MHC/competitive/fluorescence; filed as Kd, often an IC50 or EC50 that approximates it; bounds were set here for any values at or beyond the usual limits of such assays; conditions: source organism: Entamoeba histolytica HM-1:IMSS
pKd: −log10 of the molar value.
MEASURE: pKd

I'd like to know its pKd. The sequence in question is `CLSPVVAGL`
≤ 4.70

----------
target: HLA-B*40:01; test: IEDB peptide-MHC binding, purified MHC/direct/fluorescence; filed as Kd, often an IC50 or EC50 that approximates it; bounds were set here for any values at or beyond the usual limits of such assays; conditions: source organism: Orthohantavirus andesense
pKd: −log10 of the molar value.
MEASURE: pKd

For `YRRKLTNPA` , what is its reported pKd?
≤ 4.70

----------
biological target: HLA-A*68:02; test: IEDB peptide-MHC binding, purified MHC/competitive/fluorescence; filed as Kd, often an IC50 or EC50 that approximates it; bounds were set here for any values at or beyond the usual limits of such assays; conditions: source organism: Escherichia coli HS
MEASURE: pKd
# pKd = -log10(concentration in molar units)

Look up pKd for this sequence: `EAIRQIHAQ`
6.09

----------
biological target: HLA-A*68:02; experiment: IEDB peptide-MHC binding, purified MHC/competitive/fluorescence; filed as Kd, often an IC50 or EC50 that approximates it; bounds were set here for any values at or beyond the usual limits of such assays; settings: source organism: Entamoeba dispar SAW760
MEASURE: Kd (nM)
Answer format: numeric, nM implied, no suffix.

# lookup: Kd of `FYMASTWGA`
83.1

----------
molecular target: HLA-A*11:01; test: IEDB peptide-MHC binding, purified MHC/direct/fluorescence; filed as Kd, often an IC50 or EC50 that approximates it; bounds were set here for any values at or beyond the usual limits of such assays; details: source organism: Yellow fever virus
MEASURE: Kd

{"columns": ["SEQUENCE_RECORD", "Kd"],
 "data": [
  ["GSRAYRNAL", "≥ 20 µM"]
]}

Pending sequence:
Return Kd measured with HLA-A*11:01 given this sequence: `SCRVKLSAL`
≥ 20 µM

----------
biological target: HLA-A*31:01; assay: IEDB peptide-MHC binding, purified MHC/competitive/radioactivity; filed as Kd, often an IC50 or EC50 that approximates it; bounds were set here for any values at or beyond the usual limits of such assays; conditions: source organism: Dengue virus 2 Jamaica/1409/1983
// pKd lookup, one value per entry
On this scale, pKd is minus log10 of a concentration expressed in M (mol/L).

See these solved cases before continuing.
{"columns": ["SEQUENCE_RECORD", "SYSTEM_UNDER_TEST", "RECORDED_VALUE"],
 "data": [
  ["ITYKCPLLR", "HLA-A*31:01", 7.94],
  ["LMYFHRRDLR", "HLA-A*31:01", 9.25]
]}

Continue with the next sequence.
Returns the measured pKd for the input sequence. Input: `TTFVTPMLR`
7.78
